- studySystem: Hexose transporter 1 (Plasmodium falciparum)
- assayRemarks: ST_JUDE_LEISH: Cytotoxicity at 2uM final concentration against transgenic Leishmania Mexicana promastigotes LmPfHT that are glucose transport deficient and complemented with the Plasmodium falciparum hexose transporter. Activity is measured by DNA content using SYBR green in vitro
- Assay type: functional
Kindly state inhibition for each of the entries shown.
Field: numeric (%). Do not append units.

The compound `COc1ccc2nccc(N3CCC(NCc4ccc5c(n4)NC(=O)CS5)CC3)c2n1` showed inhibition equal to -0.14

The compound `COc1ccc(Cc2cnc(N)nc2N)cc1OCCCOc1ccccc1` showed inhibition equal to 0.92

The compound `Cc1ccc(CN2CCCN(Cc3ccc(C(=O)Nc4ccc(Cl)cc4)cc3)CC2)s1` showed inhibition equal to 2.74

The compound `CC(C)NCc1ccc(-c2cccc(NC(=O)c3ccc(C#N)cc3)c2)cc1` showed inhibition equal to 4.9

The compound `O=C(Nc1ccc(OC2CCN(Cc3ccccc3)CC2)c(Cl)c1)c1cccs1` showed inhibition equal to 4.54

The compound `CC(C)(C)OC(=O)/C=C(\C(=O)OCc1ccc([N+](=O)[O-])cc1)c1csc(NC(c2ccccc2)(c2ccccc2)c2ccccc2)n1` showed inhibition equal to 4.55

The compound `c1ccc(-c2ccc(CNCc3ccc(-c4cccc(-c5nc6ccccc6[nH]5)c4)cc3)s2)nc1` showed inhibition equal to 2.78

The compound O=C(NC1CCC(N2CCN(c3cccc(C(F)(F)F)c3)CC2)CC1)c1cc2ccccc2[nH]1 (stereo not drawn) showed inhibition equal to 6.44

---

- studySystem: Glucose transporter (Leishmania mexicana) (UniProt O61059)
- assayRemarks: ST_JUDE_LEISH: Cytotoxicity at 2uM final concentration against transgenic Leishmania Mexicana promastigotes LmGT2 that are glucose transport deficient and complemented with the L. Mexicana glucose transporter 2. Activity is measured by DNA content using SYBR green in vitro
- Assay type: functional
Kindly state inhibition for each of the entries shown.
Field: numeric (%). Do not append units.

The molecule `COc1c(C2CCN(CCCCNC(=O)c3ccc(-c4ccc(Cl)cc4)cn3)CC2)ccc2c1CCCC2` showed inhibition equal to -2.15

The molecule `COc1ccc(CN2CCCN(Cc3cccc(NC(=O)c4ccc(Cl)c(Cl)c4)c3)CC2)cc1` showed inhibition equal to 0.01

The molecule COc1ccc(S(=O)(=O)NC2CCN(c3ccnc4cc(Cl)ccc34)C2)cc1 (centres undefined) showed inhibition equal to 0.63

The molecule `CCc1c(CCNCCCCCCNCCc2ccc(OC)cc2)ccc(OC)c1OC` showed inhibition equal to 5.8

---

- studySystem: Solute carrier family 2, facilitated glucose transporter member 1 (Homo sapiens)
- assayRemarks: ST_JUDE_LEISH: Cytotoxicity at 2uM final concentration against transgenic Leishmania Mexicana promastigotes LmGLUT1 that are glucose transport deficient and complemented with the human glucose transporter GLUT1. Activity is measured by DNA content using SYBR green in vitro
- Type: functional
measurementKind: inhibition
Hey, just the number and the unit after it is fine.

The molecule `O=C(O)CCCN1CCCC(=C(c2ccccc2)c2ccccc2)C1` showed inhibition equal to 3.04%

The molecule `Cc1cnc(CN(Cc2ccc(-c3ccc(CNCCc4ccc(S(C)(=O)=O)cc4)cn3)cc2)C(=O)c2ccc([N+](=O)[O-])c(C)c2)cn1` showed inhibition equal to 1.89%

The molecule CC(C)CCN1CCC(Oc2ccc(NC(=O)c3cccs3)cc2Cl)C1 (centres undefined) showed inhibition equal to 10.2%

The molecule CCC(O)c1ccc(Br)cc1NC(=O)c1cccc(Cl)c1 (centres undefined) showed inhibition equal to -1.21%

Entry source: ChEMBL document CHEMBL3433997
